Attribution: the Human Domainome abundance scans (Beltran et al. 2025)

Each entry below carries its recorded abundance fitness.
B1: Zinc finger MYM-type protein 6, residues 427 to 504; numbered along this chain, O95789 (parent)
chain: KLKCQHCNHLFATKPELLFYKGKMFLFCGKNCSDEYKKKNKVVAMCDYCKLQKIIKETVRFSGVDKPFCSEVCKFLSA

Variants of: B1
Assay: abundance fitness (aPCA) (normalised: wild type 0, dead -1); higher = more abundant; growth selection in yeast, the domain comes from the species named
Conditions: Homo sapiens
Property measured: abundance fitness

[[record]]
variant_description = "K21Y"
measured_value = -0.099

[[record]]
variant_description = "F25V"
measured_value = -0.009

[[record]]
variant_description = "K37N"
measured_value = 0.097

[[record]]
variant_description = "F68A"
measured_value = -0.036

[[record]]
variant_description = "F61K"
measured_value = -0.027

[[record]]
variant_description = "V59M"
measured_value = 0.461

[[record]]
variant_description = "F61A"
measured_value = 0.209

[[record]]
variant_description = "K53L"
measured_value = -0.351

[[record]]
variant_description = "T58W"
measured_value = -0.669

[[record]]
variant_description = "D47W"
measured_value = 0.424

[[record]]
variant_description = "N31E"
measured_value = -0.058

